Data credit: PubChem BioAssay AID1159580

test details: chemical genetic growth profiling, strain panel (AID 1159580);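 note: tested at 20 µM; growth read once vehicle control cultures reached saturation at 30 °C; 1 = growth at the plate median or of vehicle wells; lower values mean less growth of the strain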
condition parameters: S. cerevisiae deletion strains, growth OD, locus YFR019W, strain FAB1, active compounds read low
About 2,000 (36%) of roughly 5,500 compounds were called active. Inconclusive results (about 18%) are left out. The list shows a part of the results.
property name: normalized growth
The response must contain the number and no unit.

Solved entries (count: 6):
Nc1ccccc1SCc1c(Cl)cccc1Cl ... 0.841
N#Cc1ccc(S(=O)(=O)Nc2ccccc2Oc2ccc(Cl)cc2Cl)cc1 ... 0.955
COc1cc(NC(=S)N(C)C)c(OC)cc1Cl ... 0.971
Cc1cc(NNC(=O)c2ccccc2Cl)nc2c1c(C)nn2C ... 0.95
CS(=NC(=O)c1cccc(Cl)c1)c1ccc(OC(=O)c2ccc(Cl)cc2)cc1 (configuration not stated) ... 0.943
COc1cc(NC(=S)NC(=O)c2ccccc2)c(OC)cc1Cl ... 0.974

Kindly review the next compound as well.
Enquiry: What value of measured normalized growth is listed for `Cc1cc(C(=O)Nc2ccc(Cl)cc2)nn1C(C)(C)C` ?
Return: 0.992

* * *

List of normalized growth values.
test details: chemical genetic growth profiling, strain panel (AID 1159580);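 note: tested at 20 µM; growth read once vehicle control cultures reached saturation at 30 °C; 1 = growth at the plate median or of vehicle wells; lower values mean less growth of the strain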
condition parameters: S. cerevisiae deletion strains, growth OD, locus YLR403W, strain SFP1, active compounds read low
Among all 5,500 compounds or so, about 2,000 (36%) were called active. Another 18% or so got no clear call; they are omitted. The list shows a part of the results.
# respond with the number and nothing more

CCOC(=O)CSC(=S)NCc1ccc(C)cc1 ... 0.967
N#Cc1ccc(S(=O)(=O)Nc2ccccc2Oc2ccc(Cl)cc2Cl)cc1 ... 0.912

Continue with the compound presented below.
Enquiry: // normalized growth lookup, key: CS(=NC(=O)c1cccc(Cl)c1)c1ccc(OC(=O)c2ccc(Cl)cc2)cc1 (stereo not drawn)
Return: 1

* * *

test details: chemical genetic growth profiling, strain panel (AID 1159580);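 note: tested at 20 µM; growth read once vehicle control cultures reached saturation at 30 °C; 1 = growth at the plate median or of vehicle wells; lower values mean less growth of the strain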
condition parameters: S. cerevisiae deletion strains, growth OD, locus YOL006C, strain TOP1, active compounds read low
The whole screen tested about 5,500 compounds, of which about 2,000 (36%) were called active. Not shown: some 18% with an inconclusive outcome. This is one part of the list.
property name: normalized growth
Answer with the value's number alone.

Here are 3 compounds together with their reported answers.
CCN(CC)CCCC(C)Nc1ccnc2cc(Cl)ccc12 (configuration not stated) ... 1.14
CCN(CCO)CCCC(C)Nc1ccnc2cc(Cl)ccc12 (configuration not stated) ... 1.01
CC1=C(CC(=O)O)c2cc(F)ccc2/C1=C\c1ccc(S(C)=O)cc1 (configuration not stated) ... 0.99

Okay, next one:
Enquiry: Field request: normalized growth | item: `O=C(CSc1nnnn1-c1ccccc1)NC1Cc2ccccc2C1`
Return: 0.944

* * *

Each entry below carries its reported normalized growth.
test details: chemical genetic growth profiling, strain panel (AID 1159580);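 note: tested at 20 µM; growth read once vehicle control cultures reached saturation at 30 °C; 1 = growth at the plate median or of vehicle wells; lower values mean less growth of the strain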
condition parameters: S. cerevisiae deletion strains, growth OD, locus YGR229C, strain SMI1, active compounds read low
The campaign covered roughly 5,500 compounds. About 2,000 (36%) were called active. Inconclusive results (about 18%) are left out. This is one part of the list.
Please reply with the value in numeric form only.

COc1ccc2c(c1OC)C(=O)O[C@@H]2[C@H]1c2cc3c(cc2CCN1C)OCO3 ... 1.03
CC(=O)[C@H]1CCC2C3CCC4=CC(=O)CC[C@]4(C)C3CC[C@@]21C (stereo partly drawn) ... 1.02
CNCC(O)c1cccc(O)c1 (stereo not drawn) ... 1.01
C[C@@H](NCCc1ccc(O)cc1)[C@@H](O)c1ccc(O)cc1 ... 0.99

Enquiry: Query: normalized growth; subject: `CN(C)CC/C=C1\c2ccccc2Sc2ccc(Cl)cc21`
Return: 0.635

Enquiry: What does the data say about its normalized growth? Entry: `COc1ccc2c(c1OC)C(=O)O[C@H]2[C@H]1c2cc3c(cc2CCN1C)OCO3`
Return: 0.99

Enquiry: I'd like to know its normalized growth. The molecule in question is `O=C(Oc1ccc(C(F)(F)F)cc1[N+](=O)[O-])c1c(F)cccc1F`
Return: 0.927

Enquiry: Query (molecule): `NNC(N)=O` ; field requested: normalized growth
Return: 1.03
